Below, each entry is listed with its recorded % EP remaining, 2 wk.
Experiment: Stability at 50° C., potency by HPLC (% EP remaining)
Assay type: physicochemical
Details: 2 wk, sealed glass vials, control: desiccated at 4° C. (100% assumed potency), 20160 min
Protocol: a. Crystalline etoposide 4'-phosphate diethanolate prepared as described above. b. Crystalline etoposide 4'-phosphate (unsolvated) was prepared by the following procedure. Etoposide 4'-phosphate (300 mg) in ethanol (175 ml) was heated with stirring at 70° C. to obtain a clear solution. […] Accurately weighed samples of the test materials were placed in Type I flint glass vials and sealed with Teflon-coated stoppers and aluminum caps. […] The potency of these samples was determined at 2,4 and 8 weeks by HPLC. […]
Please reply with the bare figure in % and do not write the unit itself.

As a guide, the following entries are already answered.
Compound	Units Label	% EP remaining, 2 wk
COc1cc([C@@H]2c3cc4c(cc3[C@@H](O[C@@H]3O[C@@H]5CO[C@@H](C)O[C@H]5[C@H](O)[C@H]3O)[C@H]3COC(=O)[C@H]23)OCO4)cc(OC)c1OP(=O)(O)O [Amorphous EP, etoposide 4'-phosphate]	%	65.8
COc1cc([C@@H]2c3cc4c(cc3[C@@H](O[C@@H]3O[C@@H]5CO[C@@H](C)O[C@H]5[C@H](O)[C@H]3O)[C@H]3COC(=O)[C@H]23)OCO4)cc(OC)c1OP(=O)(O)O [Amorphous EP 2Na, disodium etoposide 4'-phosphate]	%	85.5
COc1cc([C@@H]2c3cc4c(cc3[C@@H](O[C@@H]3O[C@@H]5CO[C@@H](C)O[C@H]5[C@H](O)[C@H]3O)[C@H]3COC(=O)[C@H]23)OCO4)cc(OC)c1OP(=O)(O)O [Crystalline EP 2EtOH, etoposide 4'-phosphate diethanolate]	%	100

Now consider the entry below.
Request: Query (compound): COc1cc([C@@H]2c3cc4c(cc3[C@@H](O[C@@H]3O[C@@H]5CO[C@@H](C)O[C@H]5[C@H](O)[C@H]3O)[C@H]3COC(=O)[C@H]23)OCO4)cc(OC)c1OP(=O)(O)O [Crystalline EP, etoposide 4'-phosphate] ; field requested: % EP remaining, 2 wk
Response: 93.3

Sourced from patent US5648474A
